# Tested on: MDA-MB-468 breast
# Assay Overview: NCI-60 one-dose screen, 48 h (100 = growth as untreated, 0 = no growth, -100 = all killed)
# Recorded Conditions: 10 µM unless noted
This is part of a sample that, as a whole, favours compounds with a hit. Of some 83,000 tested, about 20% had one in any assay.
Reported growth values are given for each entry in this list.
Assay Metric: growth (%)

> print(dat)
                               query.smiles  reported.value
1                      Oc1ccccc1N=Cc1ccccc1              91
2             NC(=S)Nc1ccc2c(c1)Cc1ccccc1-2            69.4
3  C#CCNC(=O)[C@]1(C)CCC[C@@]2(C)[C@H]1CC=C1C=C(C(C)C)CC[C@@H]12             101
4  C=CC(=O)Nc1cccc(Oc2nccc(Nc3nnc(-c4ccc(Br)cc4)s3)n2)c1             114
5  COc1cccc(NC(=O)[C@H](C(C)C)n2c(=O)[nH]c3ccccc3c2=O)c1             101
6                   N=c1c2ccccc2nc2n1CCCCC2             103

###

Reported growth values for the following compounds.
# Tested on: MDA-MB-468 breast
# Assay Overview: NCI-60 one-dose screen, 48 h (100 = growth as untreated, 0 = no growth, -100 = all killed)
# Recorded Conditions: 10 µM unless noted
This is part of a sample that, as a whole, favours compounds with a hit. Of some 83,000 tested, about 20% had one in any assay.
Assay Metric: growth (%)

> print(dat)
                               query.smiles  reported.value
1  COc1cc(/C=C/C(=O)Nc2cccnc2Nc2ccc(F)cc2)cc(OC)c1OC            97.4
2  COc1ccc(COc2ccc(/C=C3\C(=O)Nc4ccccc43)cc2OC)cc1             100
3  O=C(Nc1cccc(Cl)c1)Nc1ncc(CCNc2ncnc3ccsc23)s1            6.87
4  CCN=C1C=CC(=C(c2ccc(N(C)C)cc2)c2ccc(N(C)C)cc2)c2ccccc21           -26.8
5   O=[N+]([O-])c1ccc(/C=C/C2(CCl)OCCO2)cc1             108

###

# System: MDA-MB-468 breast
# Assay Overview: NCI-60 one-dose screen, 48 h
# Recorded Conditions: 10 µM unless noted
This is part of a sample that, as a whole, favours compounds with a hit. Of some 83,000 tested, about 20% had one in any assay. The source made the active and inactive calls. The calls were made as follows: active = growth percent below 10; inactive = the rest.
Outcomes: active, inactive

> print(dat)
                                   molecule        target.desc  qualitative.label
1  COc1ccc(C2=Nc3c(N)ncnc3NC(c3cccc(Nc4ccnc5cc(C(F)(F)F)ccc45)c3)C2)cc1 (stereo not drawn)  MDA-MB-468 breast           inactive
2  COc1ccc(Cn2cc3c(c2-c2ccccc2)CCc2cnoc2-3)cc1N  MDA-MB-468 breast           inactive
3  CCc1ccc(-c2ccc(=O)n(-c3ccc(S(N)(=O)=O)cc3)n2)cc1  MDA-MB-468 breast             active

###

# Test system: MDA-MB-468 breast
# Assay Overview: NCI-60 one-dose screen, 48 h
# Recorded Conditions: 10 µM unless noted
The panel holds about 83,000 compounds, 20% with a hit somewhere; the sample as a whole holds those more often. Calls of active or inactive are those of the source. The calls were made as follows: active = growth percent below 10; inactive = the rest.
Classes used: TRUE = active, FALSE = inactive

> print(dat)
                               query.smiles        target.desc  qualitative.label
1  COc1ccc2[nH]cc(/C=C3/C(=O)Nc4ccc(Cl)cc43)c2c1  MDA-MB-468 breast               TRUE
2       Cc1ccc(NCN2C(=O)c3ccccc3C2=O)c(C)n1  MDA-MB-468 breast              FALSE
3  CN1CCN(CC(=O)Nc2ccc(-c3nc4ccccc4s3)cc2)CC1  MDA-MB-468 breast               TRUE
4     COc1ccc(Cl)cc1C(=O)Nc1nc2ccc(Cl)cc2s1  MDA-MB-468 breast              FALSE
5  Cc1ccc(C)c(NC(=O)c2sc3c(=O)[nH]cnc3c2C)c1  MDA-MB-468 breast              FALSE

###

# Test system: MDA-MB-468 breast
# Assay Overview: NCI-60 one-dose screen, 48 h (100 = growth as untreated, 0 = no growth, -100 = all killed)
# Recorded Conditions: 10 µM unless noted
Compounds without any hit were thinned out: in the full panel of roughly 83,000, 20% have a hit.
# label = True if growth >= 60% else False

> print(dat)
                                    compound  qualitative.label
 1  CCCCS(=O)(=O)Oc1ccc(-c2nc(C)c(C(=O)OCC)s2)cc1C=O              False
 2  O=C(Cc1ccc(F)c(F)c1)Nc1cc(C2(C(F)(F)F)CC2)nn1Cc1ccccc1              False
 3  CCOc1ccccc1-c1cc(-c2cccs2)c(C#N)c(=O)[nH]1              False
 4           Cc1ccccc1CNc1c2ccccc2nc2ccccc12              False
 5  NS(=O)(=O)Oc1cccc(-c2nc3sccn3c2-c2ccccc2)c1              False
 6  N#Cc1c(-c2ccc(F)cc2)c(C#N)c2c(C#N)c(N)nn2c1N               True
 7     O=C1c2ccccc2C(=O)c2c1ccc(C(Br)Br)c2Cl              False
 8  O=C(/C=C/c1cccc(Cl)c1)OCc1ccc2cc1OCC#C/C=C\C#CCO2               True
 9         Cc1cc2nc(C(Cl)Cl)nc(-c3cccs3)n2n1              False
10   Cc1cc(=O)c2cc3nc(-c4cccnc4)oc3c(Br)c2o1               True
11  Clc1ccc2c(NCCN3CCN(c4ccnc(N5CCCC5)n4)CC3)ccnc2c1              False
12  COc1ccc(N)c(-c2cc3c(c4c2[nH]c2ccc(OC)cc24)CCCC3)c1               True
13  Cc1[nH]c(C(=O)Nc2ccc(C(=O)NCC3CCNCC3)cc2OC(C)C)c(Cl)c1Cl              False
14        Cc1nc2nc(SCC(=O)O)[nH]c2c(=O)[nH]1               True
15  Cc1nc2sc(C(=O)Nc3ccccc3)c(N)c2cc1C(O)c1ccccc1 (stereo unspecified)              False

###

# Test system: SK-OV-3 ovarian
# Assay Overview: NCI-60 one-dose screen, 48 h
# Recorded Conditions: 10 µM
This is part of a sample that, as a whole, favours compounds with a hit. Of some 83,000 tested, about 20% had one in any assay. Activity calls are given as the source filed them. How the source made its calls: active means growth percent below 10; inactive means the rest.
Outcomes: active, inactive

> print(dat)
                                query.smiles  qualitative.label
 1  Fc1ccc(-c2csc(Nc3cccc(Nc4nc(-c5ccc(F)cc5)cs4)c3)n2)cc1           inactive
 2  Cc1ccc(-c2nc(C#N)c(S(=O)(=O)N3CCN(S(C)(=O)=O)CC3)o2)cc1           inactive
 3  C#C[C@]1(O)CC[C@H]2[C@@H]3CC=C4c5sc(Nc6ccc(N(C)C)cc6)nc5CC[C@]4(C)[C@H]3CC[C@@]21C             active
 4  C#C[C@]1(O)CC[C@H]2[C@@H]3CC=C4c5sc(Nc6cc(C)cc(C)n6)nc5CC[C@]4(C)[C@H]3CC[C@@]21C             active
 5  COc1cccc(C(=O)CSc2nc(-c3ccc(OCc4ccccc4)c(OC)c3)c(C#N)c(=O)[nH]2)c1           inactive
 6  Cn1cc(/C=C(/SS/C(=C/c2cn(C)c3cccc(C(=O)O)c23)C(=O)O)C(=O)O)c2c(C(=O)O)cccc21           inactive
 7  COc1ccccc1-n1cc(C#N)c(N)c1C(=O)c1ccc(Cl)cc1Cl           inactive
 8  COc1ccc(C(=O)COc2ccc(NC(=O)Nc3ccccc3)cc2)cc1           inactive
 9  Nc1nnc(-c2c[nH]c3ncc(Br)cc23)c(-c2c[nH]c3ccc(Br)cc23)n1           inactive
10  O=C(CN1CCN(c2ncnc3c2cnn3-c2ccccc2)CC1)Nc1ccc(Br)cc1           inactive
11  COc1cccc(O)c1/C=C1\SCc2cc3c(OC)cccc3[o+]c21           inactive
12  O=C(c1ccc(Cl)cc1)C(c1c[nH]c2ccccc12)c1c[nH]c2ccccc12           inactive
13  O=[N+]([O-])c1cccc(-c2nnc3c(/C=C/c4ccccc4O)nc4ccccc4n23)c1           inactive
14  Cc1ccc(COc2ccc(NC(=O)Nc3ccc(Cl)c(C(F)(F)F)c3)cc2)cc1           inactive
15  O=C(Nc1ccc(OCc2ccc(F)cc2)cc1)Nc1ccc(Cl)c(C(F)(F)F)c1             active
16  COC(=O)CNC(=O)COc1c(OC)c(OC)cc2oc(-c3cccc(C(=O)Nc4ccc(Cl)cc4)c3)cc(=O)c12           inactive
17  CCn1c(SCC(=O)Nc2ccc(-c3nc4ccccc4[nH]3)cc2)nc2ccccc2c1=O             active
18  O=C1S/C(=C\c2ccc([N+](=O)[O-])cc2)C(=O)N1CCN1CCCCC1           inactive
19  Cn1cc(-c2nnc(N)nc2-c2c[nH]c3ccccc23)c2cc(Br)cnc21           inactive
20  CC1(C)CC(=O)C2=C(C1)N(Cc1ccc(C(=O)O)cc1)C1=C(C(=O)CC(C)(C)C1)C2c1ccc(Cl)cc1           inactive
21  O=C(CN1CCN(c2ncnc3c2cnn3-c2ccccc2)CC1)Nc1ccc(Cl)cc1           inactive
22  COc1cc(-c2nc3ccc(C)cc3[nH]2)ccc1OCc1nnc(-c2ccccc2Br)o1           inactive
23  O=C(CC(=O)Nc1ccc(Oc2ncnc3scc(Nc4n[nH]c(=S)s4)c23)cc1)Nc1ccc(Br)cc1           inactive
